Biological target: human MGL from HeLa cells (Homo sapiens (Human))
Sequence (Q99685 whole entry): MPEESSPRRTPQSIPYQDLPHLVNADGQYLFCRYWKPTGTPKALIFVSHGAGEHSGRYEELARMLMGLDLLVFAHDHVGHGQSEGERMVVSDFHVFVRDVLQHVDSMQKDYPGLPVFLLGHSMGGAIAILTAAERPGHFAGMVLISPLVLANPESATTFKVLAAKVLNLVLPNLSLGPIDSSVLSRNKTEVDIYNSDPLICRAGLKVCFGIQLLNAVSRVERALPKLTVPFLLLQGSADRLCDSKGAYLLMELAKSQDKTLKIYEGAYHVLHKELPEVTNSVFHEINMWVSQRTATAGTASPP
Assay: MGL in vitro activity assay ([glycerol-1,3-3H]-oleoyl glycerol hydrolysis, activated carbon filtration)
Settings: 300 nM [Glycerol-1,3-3H]-oleoyl glycerol, one hour
IC50 strictly less than 50 nM = y. Otherwise n.

>  <Compound>
CC(C)(C)c1ccc(OC2CCC3(C2)CN(C(=O)[C@H]2C[C@@](C)(O)C2)C3)cc1 (mixture of isomers) [Example 240]

>  <Class>
n

$$$$
>  <Compound>
Cn1ccc2ccc(C3(F)CCC4(CC3)CN(C(=O)[C@H]3C[C@@](C)(O)C3)C4)nc21 [Example 341]

>  <Class>
n

$$$$
>  <Compound>
CC(C)c1cccc(C2CC3(CCN(C(=O)[C@H]4C[C@@](C)(O)C4)C3)C2)c1 (stereo partly shown) [Example 36]

>  <Class>
n

$$$$
>  <Compound>
Cc1ccc(Cl)c(OC2CCC3(CC2)CN(C(=O)[C@H]2C[C@@](C)(O)C2)C3)c1 [Example 410]

>  <Class>
y

$$$$
>  <Compound>
CC(C)n1ccc2ccc(C3CCC4(CC3)CN(C(=O)[C@H]3C[C@@](C)(O)C3)C4)nc21 [Example 385]

>  <Class>
y

$$$$
>  <Compound>
CCc1cc(OC)cc(C2CCC3(CC2)CN(C(=O)[C@H]2C[C@@](C)(O)C2)C3)c1 [Example 145]

>  <Class>
y

$$$$
